The values you see were collected from patent US20060079512A1.

Tested on: HT-29, SF-268, PC-3, MDA-MB-231
Assay: Average GI50 over the four cell lines, method (b)
Assay type: cell-based
Details: values > 30 not considered
Attribute Measured: GI50 (µM)

As a guide, the following entries are already answered.
# Molecule, Target Entity, Attribute Measured, Value Measured
rows = [
    ("C/C(=C\\CN1C(=O)c2cccc(O)c2N(C)c2c(O)cc(O)cc21)CCCC(C)CCCC(C)C (centres unmarked) [Compound 100]", "HT-29, SF-268, PC-3, MDA-MB-231", "GI50", 0.49),
    ("CCCCN1c2c(O)cccc2C(=O)N(C/C=C(\\C)CC/C=C(\\C)CCC=C(C)C)c2cc(O)cc(O)c21 [Compound 64]", "HT-29, SF-268, PC-3, MDA-MB-231", "GI50", 1.4),
    ("CC(=O)NC(C)(CCC=C(C)C)CCC/C(C)=C/CN1C(=O)c2cccc(O)c2Nc2c(O)cc(O)cc21 (centres unmarked) [Compound 92]", "HT-29, SF-268, PC-3, MDA-MB-231", "GI50", 13.7),
    ("COC(C)(C)CCC/C(C)=C/CC/C(C)=C/CN1C(=O)c2cccc(O)c2Nc2c(O)cc(O)cc21 [Compound 82]", "HT-29, SF-268, PC-3, MDA-MB-231", "GI50", 13.2),
    ("CCN1c2c(O)cccc2C(=O)N(C/C=C(\\C)CC/C=C(\\C)CCCC(C)(C)OC)c2cc(O)cc(O)c21 [Compound 85]", "HT-29, SF-268, PC-3, MDA-MB-231", "GI50", 1.72),
]

a. CC(C)=CCC/C(C)=C/CC/C(C)=C/CN1C(=O)c2cccc(O)c2Nc2c1cc(O)c(Br)c2O [Compound 97]
b. [2H]C([2H])([2H])N1c2c(O)cccc2C(=O)N(C/C=C(\C)CC/C=C(\C)CCC=C(C)C)c2cc(O)cc(O)c21 [Compound 98]
Form field 'greater GI50' accepts a or b ; which applies? Identify your selection by its label.
a

I. CC(C)=CCC/C(C)=C/CC/C(C)=C/CN1C(=O)c2cccc(OC(=O)c3ccccc3)c2Nc2c(OC(=O)c3ccccc3)cc(OC(=O)c3ccccc3)cc21 [Compound 105]
II. CCC(C)N1c2c(O)cccc2C(=O)N(C/C=C(\C)CC/C=C(\C)CCC=C(C)C)c2cc(O)cc(O)c21 (centres unmarked) [Compound 77]
Which has the smaller recorded GI50, I or II ? Please respond with the label that marks your chosen entry.
II
(II: 9.98 µM, I: 28.2 µM)
